experiment: Distribution coefficient, log D at pH 7.3; format: physicochemical; settings: octanol/water
attribute_measured: logD
Reply briefly: the number, and no unit.

In the examples that follow, each entry is paired with its recorded logD.
C[C@H](NC(=O)C(C)(C)Oc1cc(C(F)(F)F)ncn1)[C@@H](Cc1ccc(OCCF)cc1)c1cccc(C#N)c1 : 3.9
C[C@H](NC(=O)C(C)(C)Oc1cc(C(F)(F)F)ccn1)[C@@H](Cc1ccc(OCCF)cc1)c1cccc(C#N)c1 : 4.6
Cc1ccnc(OC(C)(C)C(=O)N[C@@H](C)[C@@H](Cc2ccc(OCCF)cc2)c2cccc(C#N)c2)c1 : 4.1
C[C@H](NC(=O)C(C)(C)Oc1ccc(C(F)(F)F)cn1)[C@@H](Cc1ccc(OCCF)cc1)c1cc(F)cc(C#N)c1 : 4.6
C[C@H](NC(=O)C(C)(C)Oc1ccc(Cl)cn1)[C@@H](Cc1ccc(OCCF)cc1)c1cccc(C#N)c1 : 4.2
COc1ccc(C[C@@H](c2cc(F)cc(C#N)c2)[C@H](C)NC(=O)C(C)(C)Oc2ccc(C(F)(F)F)cn2)cc1 : 4.8
C[C@H](NC(=O)C(C)(C)Oc1ccccn1)[C@@H](Cc1ccc(OCCF)cc1)c1cccc(C#N)c1 : 3.7
Cc1ccc(OC(C)(C)C(=O)N[C@@H](C)[C@@H](Cc2ccc(OCC[18F])cc2)c2cccc(C#N)c2)nc1 : 4

Query: # get_value(readout='logD', item= "Cc1ccc(OC(C)(C)C(=O)N[C@@H](C)[C@@H](Cc2ccc(OCCF)cc2)c2cccc(C#N)c2)nc1" )
Reply: 4

Query: # get_value(readout='logD', item= "C[C@H](NC(=O)C(C)(C)Oc1ccc(C(F)(F)F)cn1)[C@@H](Cc1ccc(OCF)cc1)c1cc(F)cc(C#N)c1" )
Reply: 4.7
